Tested on: NCI-H460 lung
assayOverview: NCI-60 one-dose screen, 48 h
setupConditions: 10 µM unless noted
Protocol: Growth inhibition of the NCI-H460 human Non-Small Cell Lung tumor cell line is measured as a screen for anti-cancer activity. Cells are grown in 96 well plates and exposed to the test compound for 48 hours. Compounds are tested at a single concentration, which is 10^-5 M for most compounds. The reported endpoint is percent growth (GI% or GIPRCNT), where numbers from 0 - 100% represent growth inhibition, and numbers from -100% - 0 represent cell death. […]
This is part of a sample that, as a whole, favours compounds with a hit. Of some 83,000 tested, about 20% had one in any assay. Activity calls are given as the source filed them. How the source made its calls: active means growth percent below 10; inactive means the rest.
Classes used: active, inactive

molecule: C/C(=C\C(=O)c1ccc(Cl)cc1)c1ccc(Cl)cc1
assignedClass: inactive
//
molecule: COc1ccc(/C=C(/C#N)n2nnc3cccc(F)c32)cc1
assignedClass: active
//
molecule: COc1cccc(-c2nn(-c3ccccc3)cc2-c2ccnc(N3CCOCC3)c2)c1
assignedClass: inactive
//
molecule: C#Cc1cccc(NC(=O)c2ccc(NC(=O)C=C)cc2)c1
assignedClass: inactive
//
molecule: COc1cc(C(=O)N2N=C(c3ccc(S(C)(=O)=O)cc3)CC2c2ccco2)cc(OC)c1OC (stereo not given)
assignedClass: inactive
//
molecule: CCCCCCn1c(-c2ccc(C(=O)O/N=C(\N)c3ccc4ccccc4c3)cc2)nc(-c2ccccc2)c1-c1ccccc1
assignedClass: inactive
//
molecule: CN1C(=O)N(C)C2Nn3c(s/c(=C\c4ccccc4)c3=O)=NC21 (stereo not given)
assignedClass: inactive
//
molecule: Fc1cc2c(cc1Cl)N(c1ncnc3ccc(-c4cnc5cnccn45)cc13)CC2
assignedClass: inactive
//
molecule: c1cc(NCCc2ccncc2)nc(-n2cnc3ccccc32)c1
assignedClass: inactive
//
molecule: O=C1/C(=C/c2ccc(F)cc2)Sc2c(Br)cccc21
assignedClass: inactive

---

System: SK-MEL-2 melanoma
assayOverview: NCI-60 one-dose screen, 48 h (100 = growth as untreated, 0 = no growth, -100 = all killed)
setupConditions: 10 µM unless noted
Compounds without any hit were thinned out: in the full panel of roughly 83,000, 20% have a hit.
Param threshold (50%) applies to growth; output 1 when value >= threshold, 0 when value < threshold.

compound: CCCC1CCC(O)(C(C)(O)C(=O)NC2C(=O)N3NCCCC3C(=O)N(O)C(C)C(=O)N3NCCCC3C(=O)N3NCC(O)CC3C(=O)NC(C)C(=O)OC2C(C)C)OC1CC (stereo not drawn)
assignedClass: 0

compound: COc1cccc(/C=C2\C=C(c3ccccc3)N(Cc3ccccc3)C2=O)c1
assignedClass: 1

compound: O=S(=O)(Nc1ccc(-c2nc(-c3cccc(OCCN4CCOCC4)c3)c(-c3ccnc(Br)c3)[nH]2)cc1)c1ccccc1
assignedClass: 0

compound: c1ccc2cc(C[n+]3ccn(CCCCCCCCCCCCn4cc[n+](Cc5ccc6ccccc6c5)c4)c3)ccc2c1
assignedClass: 0

compound: C=C1C(=O)O[C@H]2[C@H]1CC/C(COC(=O)NCCOCCOCC(=O)Nc1ccc(OC)c(C(N)=O)c1O)=C\CC[C@@]1(C)O[C@@H]21
assignedClass: 1

compound: COc1ccc(OC)c(/C=C/C(=O)N/N=C/c2ccc(Cl)cc2)c1
assignedClass: 0

compound: CC(=O)OC[C@H]1OC(Sc2sc(C(=O)c3ccc(Br)cc3)c(N)c2-c2nc3ccccc3s2)[C@H](OC(C)=O)[C@@H](OC(C)=O)[C@H]1OC(C)=O (stereo partly drawn)
assignedClass: 1

compound: Fc1cc(-c2nnc3sc(-c4ccc(Cl)cc4Cl)nn23)c(Cl)cc1Cl
assignedClass: 1

compound: S=C(c1cccs1)N1CCN(c2cccc(Cl)c2)CC1
assignedClass: 1

compound: CCCCN(C)N=Nc1ccc(C(N)=O)cc1
assignedClass: 1

compound: CN1CCN(c2ccc(-c3cc4c(Nc5ccc(F)c(Cl)c5)ncnn4c3)cn2)CC1
assignedClass: 1

compound: CCCCn1c(=O)c(-c2cc(-c3ccc(Cl)cc3)nc(-c3ccc(Cl)cc3)c2)cc2ccc(Cl)cc21
assignedClass: 1

compound: CCCCCCn1c(-c2ccc(C(=O)O/N=C(\N)c3ccc4c(c3)OCO4)cc2)nc(-c2ccccc2)c1-c1ccccc1
assignedClass: 1

compound: NCCCNc1nc2ccccc2c2c(=O)c3cc(C(F)(F)F)ccc3sc12
assignedClass: 1

compound: COc1cc(C(=O)c2cnc(-c3cccc4[nH]ccc34)[nH]2)cc(OC)c1OC
assignedClass: 0

compound: Cc1nc2cnc(N)c(C#Cc3cncc(C(=O)Nc4ccc(CN5CCN(C)CC5)c(C(F)(F)F)c4)c3)c2nc1C
assignedClass: 0

compound: N#Cc1c(Nc2cccc(Cl)c2)sc(C(=O)c2cc3cc(Cl)ccc3o2)c1N
assignedClass: 1

compound: CC(C)C(=O)Nc1ccc(-c2nc(-c3cccc(OCCN4CCOCC4)c3)c(-c3ccnc(Br)c3)[nH]2)cc1
assignedClass: 0

compound: CCOC(=O)CC1C(COC(=O)NC)OC(n2cnc3c(NC(=O)Nc4ccccc4)ncnc32)C1O[Si](C)(C)C(C)(C)C (stereo not drawn)
assignedClass: 1

compound: CCOC(=O)/C(C#N)=C\Nc1ccc2ncnc(Nc3ccc(Cl)cc3Cl)c2c1
assignedClass: 1

compound: CSc1nc2ccc(C)cc2cc1/C=N/O
assignedClass: 1

compound: C[N+]1=C(/C=C/c2ccc(O)c3ncccc23)C(C)(C)c2ccccc21
assignedClass: 0

compound: COc1cc(CCCO)c(OC)c(OC)c1OC
assignedClass: 1

compound: CCN(CC)CCNC(=O)c1cn2ncnc(Oc3ccc(NC(=O)Nc4ccc(Cl)c(C(F)(F)F)c4)cc3)c2c1C
assignedClass: 0

compound: Cc1cccc2c(=O)c3c(sc12)c(NCc1ccccc1)nc1ccccc13
assignedClass: 1

compound: COc1ccc(-c2c(C(=O)NS(C)(=O)=O)n(Cc3cccc(C(F)(F)F)c3)c3ccccc23)cc1
assignedClass: 1

compound: c1ccc(Nc2cc(-c3cccnc3)[nH]n2)cc1
assignedClass: 1

compound: NCCCNc1nc2ccccc2c2c(=O)c3cccc(F)c3sc12
assignedClass: 1

compound: CC(=O)c1ccc(Nc2nc(C(C)=O)c(C)s2)cc1
assignedClass: 1

compound: CN1CCN(Cc2ccc(NC(=O)c3cncc(C#Cc4cnccc4C#N)c3)cc2C(F)(F)F)CC1
assignedClass: 1

compound: c1ccc(-c2nc3nonc3nc2-c2ccccc2)cc1
assignedClass: 1

compound: O=C1NC(=O)C(Cn2cnc3ccccc32)N1 (stereo not drawn)
assignedClass: 1

compound: CCc1ccc(Oc2c(-c3ccc(OCc4ccc(Cl)cc4)cc3O)nn(C)c2C(F)(F)F)cc1
assignedClass: 0

compound: c1ccc(Cc2nn3cc(-c4ccccc4)nc3s2)cc1
assignedClass: 1

compound: CCOC(=O)Nc1ccc(-c2nc(-c3cccc(OC)c3)c(-c3ccnc(Br)c3)[nH]2)cc1
assignedClass: 0

compound: COc1ccc2nc(NCCCNCCO)c3sc4ccc(F)cc4c(=O)c3c2c1
assignedClass: 1

compound: Cc1ccc(/C=N\NC(=O)c2[nH]c3ccc(F)cc3c2-c2ccccc2)cc1
assignedClass: 0

compound: NCCCNc1nc2ccccc2c2c(=O)c3cc(F)cc(F)c3sc12
assignedClass: 1
